Target: Transient receptor potential cation channel subfamily M member 8 (Rattus norvegicus) (UniProt Q8R455)
Sequence (Q8R455 whole entry, looked up): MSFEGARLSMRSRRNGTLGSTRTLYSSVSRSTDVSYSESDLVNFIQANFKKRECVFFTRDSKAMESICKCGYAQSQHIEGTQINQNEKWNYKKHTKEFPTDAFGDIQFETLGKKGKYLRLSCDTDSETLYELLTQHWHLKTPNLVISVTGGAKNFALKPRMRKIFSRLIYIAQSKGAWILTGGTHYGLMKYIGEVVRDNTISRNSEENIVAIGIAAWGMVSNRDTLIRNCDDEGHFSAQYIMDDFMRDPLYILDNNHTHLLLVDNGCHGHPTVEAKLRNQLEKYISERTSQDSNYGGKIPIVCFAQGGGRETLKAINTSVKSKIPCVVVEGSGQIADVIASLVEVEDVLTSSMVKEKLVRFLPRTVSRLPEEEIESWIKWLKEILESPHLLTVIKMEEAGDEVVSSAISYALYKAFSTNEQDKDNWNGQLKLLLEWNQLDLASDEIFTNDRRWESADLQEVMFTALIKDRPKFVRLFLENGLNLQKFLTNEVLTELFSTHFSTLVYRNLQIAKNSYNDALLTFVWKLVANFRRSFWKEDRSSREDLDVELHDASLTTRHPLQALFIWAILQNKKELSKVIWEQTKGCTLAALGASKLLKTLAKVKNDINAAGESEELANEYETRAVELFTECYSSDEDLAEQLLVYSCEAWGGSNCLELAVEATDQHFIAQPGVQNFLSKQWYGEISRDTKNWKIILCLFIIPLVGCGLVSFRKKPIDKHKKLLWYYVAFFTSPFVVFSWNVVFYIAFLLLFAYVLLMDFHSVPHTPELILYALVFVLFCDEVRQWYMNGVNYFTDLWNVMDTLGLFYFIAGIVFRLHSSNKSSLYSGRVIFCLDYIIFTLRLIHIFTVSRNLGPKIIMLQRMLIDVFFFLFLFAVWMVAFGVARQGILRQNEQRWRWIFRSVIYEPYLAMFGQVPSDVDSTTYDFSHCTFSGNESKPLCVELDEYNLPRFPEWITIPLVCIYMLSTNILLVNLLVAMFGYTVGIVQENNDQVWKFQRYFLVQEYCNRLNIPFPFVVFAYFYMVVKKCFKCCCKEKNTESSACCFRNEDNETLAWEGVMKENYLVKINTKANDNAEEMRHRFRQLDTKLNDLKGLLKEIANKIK
Assay: Agonist activity at rat TRPM8 expressed in HEK293 cells assessed as induction of intracellular Ca2+ level by Fluo-4-AM dye based spectrofluorimetry relative to 4 uM ionomycin
Format: cell-based
quantity.kind: Efficacy (%)

Look over these answered cases.
> print(dat)
                                   compound  quantity.kind  value.reported
1  O=C1NC(c2cccc([N+](=O)[O-])c2)=CCN1c1cccc(Cl)c1       Efficacy            45.6
2  COc1ccccc1N1CC=C(c2cccc([N+](=O)[O-])c2)NC1=O       Efficacy            18.5
3  Cc1ccc(O)c(N2CC=C(c3cccc([N+](=O)[O-])c3)NC2=O)c1       Efficacy            69.4
4  O=C1NC(c2cccc([N+](=O)[O-])c2)=CCN1c1cccc(Br)c1       Efficacy              47
5  Cc1ccc(N2CC=C(c3cccc([N+](=O)[O-])c3)NC2=O)c(O)c1       Efficacy              46

A. CC1=C(c2cccc([N+](=O)[O-])c2)NC(=O)N(c2ccccc2O)C1
B. O=C1NC(c2cccc([N+](=O)[O-])c2)=CCN1c1ccccc1CO
// query Please indicate which has the smaller reported Efficacy: A , or B . Write the label of whichever entry you select.
// result A

Source: ChEMBL document CHEMBL3421598
